Catalogue of viability values
Test: SK-BR-3 cell growth inhibitors, pilot screen, 24 h, human (AID 572);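 further: compound exposure lasted between 18 and 24 h rather than exactly 24 h; 100% = carrier-treated control wells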
Settings: SK-BR-3 viability, CellTiter-Glo luminescence, at 10 µM, hits give low values
Give the value in % but do not write % after it.

compound | viability [%]
CCOC(=O)NC(=O)CSc1nnnn1-c1ccc(Cl)cc1 | 86.5
CCOC(=O)N1CCC(N(CCCOC)C(=O)Nc2ccc(CC)cc2)CC1 | 106
CC1CCN(S(=O)(=O)c2ccc(Br)s2)CC1 | 98
CN(C)CC(=O)N1c2ccccc2CCc2ccc(NC(=O)c3ccc(N)cc3)cc21 | 103
COc1ccc(NC(=O)N(C2CCCCC2)C2CCN(C(C)C)CC2)c(OC)c1 | 87
CCN(CC)S(=O)(=O)c1ccc(NC(=O)Cn2cnc3ccccc3c2=O)cc1 | 87

Form field viability, entry CC1=Nn2c(nnc2-c2ccc(F)cc2)SC1 : 85

get_value(item= COc1ccc(NC(=O)CCc2ccccc2)cc1NC(=O)c1ccco1 , readout=viability) returns 64

Form field viability, entry C=CCNC(=O)c1ccc(Cl)cc1Cl : 108

Entry Cc1ccc(O)c(-c2cc3ccccc3[nH]2)c1 — recorded viability = 105

Item: COc1ccccc1CC(NC(C)=O)C(=O)NC1CCN(c2nnnn2-c2ccccc2)CC1 (stereo unspecified) | viability: 97
